# System: Rattus norvegicus
# experimental.details: Cmax in Sprague-Dawley rat at 320 mg/kg, po by HPLC/MS/MS analysis
# Assay type: ADME, organism-based
# Set-up: dose 320 mg/kg, route oral
# condition.description: in vivo
observed.property: Cmax

Q: Check Rattus norvegicus data and give Cmax for Cc1nc(-c2ccc(Cl)cc2)nc(OCCCN2CCCCC2)c1Cl .
Ans: 17400 ng/mL

====

# Species on record: Cavia porcellus
# experimental.details: Selectivity ratio of Ki for Dunkin Hartley guinea pig brain sigma-2 receptor to Ki for Dunkin Hartley guinea pig brain sigma-1 receptor
observed.property: Ratio Ki
The response must contain the number and no unit.

Q: Specify Ratio Ki for CC(C)c1cc(OCCCN2CCCCC2)nc(-c2ccccc2)n1 and stop.
Ans: 9.7

Q: Specify Ratio Ki for CCN1CCN(CCCOc2cc(C)nc(-c3ccccc3)n2)CC1 and stop.
Ans: 38.5

Q: Specify Ratio Ki for FC(F)(F)c1cc(OCCCN2CCCCC2)nc(-c2ccccc2)n1 and stop.
Ans: 48

Q: Specify Ratio Ki for Cc1cc(OCC(O)CN2CCOCC2)nc(-c2ccccc2)n1 (centres undefined) and stop.
Ans: 3.4

====

# experimental.details: Displacement of [3H]-DTG from sigma-2 receptor in Dunkin Hartley guinea pig brain membrane after 120 mins by liquid scintillation counting analysis in presence of (+)-SKF10047
# Set-up: species or system Cavia porcellus
I'd be grateful if you could share measured Ki for these entries.
Give the quantity in nM, number only.

Q: Specify Ki for Cc1cc(OCC(O)CN2CCOCC2)nc(-c2ccccc2)n1 (configuration not stated) and stop.
Ans: 1640

Q: Specify Ki for CC(C)c1cc(OCCCN2CCCC2)nc(-c2ccccc2)n1 and stop.
Ans: 1090

Q: Specify Ki for Cc1cc(OCCCN2CCC(C)CC2)nc(-c2ccccc2)n1 and stop.
Ans: 1420

Q: Specify Ki for Cc1ncnc(OCCCN2CCCCC2)c1Cl and stop.
Ans: 1100

Q: Specify Ki for CCCN(CCC)CCCOc1cc(C)nc(-c2ccccc2)n1 and stop.
Ans: 1070

Q: Specify Ki for CCN1CCN(CCCOc2cc(C)nc(-c3ccccc3)n2)CC1 and stop.
Ans: 1180

Q: Specify Ki for Cc1nc(-c2ccccc2)nc(OCCCN2CCCC2)c1F and stop.
Ans: 1190

Q: Specify Ki for CCCc1cc(OCCCN2CCCC2)nc(-c2ccccc2)n1 and stop.
Ans: 1400

====

# experimental.details: Half life in Sprague-Dawley rat at 16 mg/kg, iv by HPLC/MS/MS analysis
# condition.description: in vivo
observed.property: half-life (h)
Give the quantity in h, number only.

Q: Specify half-life for Cc1nc(-c2ccc(Cl)cc2)nc(OCCCN2CCCCC2)c1Cl and stop.
Ans: 10.6

====

I'd be grateful if you could share measured Ki for these entries.
# target.or.test.system: Sigma non-opioid intracellular receptor 1 (Cavia porcellus, UniProt Q60492)
# Sequence (Q60492 whole entry): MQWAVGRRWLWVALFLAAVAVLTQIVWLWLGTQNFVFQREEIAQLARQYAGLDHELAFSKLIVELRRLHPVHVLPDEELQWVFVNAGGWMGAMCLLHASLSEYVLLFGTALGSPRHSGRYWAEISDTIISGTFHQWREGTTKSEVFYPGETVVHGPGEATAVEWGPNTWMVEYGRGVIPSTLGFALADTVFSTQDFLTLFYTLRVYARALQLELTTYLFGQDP
# experimental.details: Displacement of [3H]-(+)-pentazocine from sigma-1 receptor in Dunkin Hartley guinea pig brain membranes after 180 mins by liquid scintillation counting analysis
# Parameters: species or system Membrane
Give the quantity in µM, number only.

Q: Specify Ki for CC(C)c1cc(OCCCN2CCCCC2)nc(-c2ccccc2)n1 and stop.
Ans: 0.188

Q: Specify Ki for Cc1cc(OCCCCCN2CCOCC2)nc(-c2ccccc2)n1 and stop.
Ans: 0.389

Q: Specify Ki for c1ccc(-c2nc(OCCCN3CCCC3)cc(C3CC3)n2)cc1 and stop.
Ans: 0.278

Q: Specify Ki for Cc1nc(-c2ccc(F)cc2)nc(OCCCN2CCCCC2)c1Cl and stop.
Ans: 0.00114
